target: Glycogen [starch] synthase, muscle (Homo sapiens) (UniProt P13807); test: Activation of human muscle recombinant GYS1 assessed as 2 fold increase glycogen synthesis by coupled enzyme assay; conditions: Muscle tissue
Sequence (P13807 whole entry): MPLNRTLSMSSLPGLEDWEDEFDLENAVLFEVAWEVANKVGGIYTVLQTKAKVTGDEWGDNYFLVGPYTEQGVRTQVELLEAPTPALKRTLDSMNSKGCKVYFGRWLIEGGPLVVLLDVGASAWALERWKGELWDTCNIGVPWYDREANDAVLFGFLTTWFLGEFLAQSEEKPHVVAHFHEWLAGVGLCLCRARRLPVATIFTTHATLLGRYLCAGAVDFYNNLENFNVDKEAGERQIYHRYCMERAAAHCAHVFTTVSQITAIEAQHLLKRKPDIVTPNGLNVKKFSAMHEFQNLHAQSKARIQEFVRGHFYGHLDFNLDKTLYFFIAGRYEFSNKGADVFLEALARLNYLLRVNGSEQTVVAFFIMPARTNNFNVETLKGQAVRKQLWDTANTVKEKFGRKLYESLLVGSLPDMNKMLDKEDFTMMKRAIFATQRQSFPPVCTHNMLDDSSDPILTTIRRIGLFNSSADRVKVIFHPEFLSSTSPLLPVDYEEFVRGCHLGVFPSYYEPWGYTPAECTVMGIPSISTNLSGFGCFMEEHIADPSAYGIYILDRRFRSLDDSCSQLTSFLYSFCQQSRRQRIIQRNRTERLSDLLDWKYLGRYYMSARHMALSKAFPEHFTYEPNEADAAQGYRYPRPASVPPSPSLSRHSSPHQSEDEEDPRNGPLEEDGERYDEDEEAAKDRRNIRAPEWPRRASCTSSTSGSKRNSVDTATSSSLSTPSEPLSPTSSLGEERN
reported.property: Activity (µM)

Example compounds with recorded Activity:
compound	system.tested	numeric.result
O=C(O)[C@H]1CCS(=O)(=O)N1Cc1cccc(COc2ccc(-c3cc(F)c(F)cc3Cl)cc2)c1	Glycogen [starch] synthase, muscle (Homo sapiens) (UniProt P13807)	0.42
Cc1cc(F)c(F)cc1-c1ccc(OCc2cccc(CN3[C@H](C(=O)O)CCS3(=O)=O)c2)cc1	Glycogen [starch] synthase, muscle (Homo sapiens) (UniProt P13807)	0.01
CCC(=O)N(CC(=O)O)Cc1cccc(COc2ccc(-c3cc(F)c(F)cc3OC)cc2)c1	Glycogen [starch] synthase, muscle (Homo sapiens) (UniProt P13807)	0.1
COc1cc(F)c(F)cc1-c1ccc(OCc2cccc(CN3[C@@H](C(=O)O)CCS3(=O)=O)c2)cc1	Glycogen [starch] synthase, muscle (Homo sapiens) (UniProt P13807)	0.1
COc1cc(F)c(F)cc1-c1ccc(OCc2cccc(CN(CC(=O)O)C(=O)C3CCC3)c2)cc1	Glycogen [starch] synthase, muscle (Homo sapiens) (UniProt P13807)	0.18
COc1cc(F)c(F)cc1-c1ccc(OCc2cccc(CN3[C@H](C(=O)O)CCS3(=O)=O)c2)cc1	Glycogen [starch] synthase, muscle (Homo sapiens) (UniProt P13807)	0.01
COc1cc(F)c(F)cc1-c1ccc(OCc2cccc(CNCC(=O)O)c2)cc1	Glycogen [starch] synthase, muscle (Homo sapiens) (UniProt P13807)	0.38
CCN(CC(=O)O)Cc1cccc(COc2ccc(-c3cc(F)c(F)cc3OC)cc2)c1	Glycogen [starch] synthase, muscle (Homo sapiens) (UniProt P13807)	0.5

(P) Cc1cc(F)c(F)cc1-c1ccc(OCc2cccc(CN3[C@@H](C(=O)O)CCS3(=O)=O)c2)cc1
(Q) COc1cc(F)c(F)cc1-c1ccc(OCc2cccc(C(=O)N3CCC[C@H]3C(=O)O)c2)cc1
Request: Which of the two items, P and Q , has the greater recorded Activity? // output: label of the selected item
Result: P
(P: 0.32 µM, Q: 0.02 µM)

(I) COc1cc(F)c(F)cc1-c1ccc(OCc2cccc(CN3C(C(=O)O)CCS3(=O)=O)c2)cc1 (racemic)
(II) COc1cc(F)c(F)cc1-c1ccc(OCc2cccc(CN(CC(=O)O)C(=O)C(C)(C)C)c2)cc1
(III) O=C(O)[C@@H]1CCS(=O)(=O)N1Cc1cccc(COc2ccc(-c3cc(F)c(F)cc3Cl)cc2)c1
(IV) COC(=O)N(CC(=O)O)Cc1cccc(COc2ccc(-c3cc(F)c(F)cc3OC)cc2)c1
Request: Please order the records by their reported Activity, lowest number first. Form field (ranking): labels in requested order.
Result: I, III, II, IV

(I) CCN(CC(=O)O)C(=O)c1cccc(COc2ccc(-c3cc(F)c(F)cc3OC)cc2)c1
(II) CCS(=O)(=O)N(CC(=O)O)Cc1cccc(COc2ccc(-c3cc(F)c(F)cc3OC)cc2)c1
Request: # compare Activity for I vs II ; return the one with the smaller value Provide the label of your selected option as the answer.
Result: I
(I: 0.02 µM, II: 0.04 µM)

(A) O=C(O)[C@@H]1CCS(=O)(=O)N1Cc1cccc(COc2ccc(-c3cc(F)c(F)cc3F)cc2)c1
(B) COc1cc(F)c(F)cc1-c1ccc(OCc2cccc(CN(CC(=O)O)C(=O)OC(C)C)c2)cc1
(C) O=C(O)[C@H]1CCS(=O)(=O)N1Cc1cccc(COc2ccc(-c3cc(F)c(F)cc3F)cc2)c1
Request: Ordering criterion: Activity; begin with the maximum. Use the labels to give the requested order.
Result: C, B, A

====

assay: Oral bioavailability in Wistar rat at 10 mg/kg; format: ADME, organism-based; conditions: in vivo
reported.property: bioavailability (%)
Entry rule: numbers only, all in %.

Request: Endpoint output: bioavailability of `O=C(O)[C@@H]1CCS(=O)(=O)N1Cc1cccc(COc2ccc(-c3cc(F)c(F)cc3F)cc2)c1` . Value?
Result: 52

====

assay: Volume of distribution at steady state in Wistar rat at 5 mg/kg, iv; type: ADME, organism-based; design: dose 5 mg/kg, route intravenous; settings: in vivo, read-out: Vdss
reported.property: Vd (L/kg)
Field: numeric (L/kg). Do not append units.

Request: Which Vd value is on record for `O=C(O)[C@@H]1CCS(=O)(=O)N1Cc1cccc(COc2ccc(-c3cc(F)c(F)cc3F)cc2)c1` ?
Result: 0.98

====

molecular target: UniProt:P13807; assay: Activation of GYS1 in human skeletal muscle cells using [14C]-D-glucose assessed as fold increase in radiolabelled glycogen at 75 uM after 5 hrs by Topcounting relative to untreated control
reported.property: fold change (FC)

Examples from the recorded data:
smiles.input	fold change (FC)
COc1cc(F)c(F)cc1-c1ccc(OCc2cccc(C(=O)N3CCC[C@H]3C(=O)O)c2)cc1	32.5
CCS(=O)(=O)N(CC(=O)O)Cc1cccc(COc2ccc(-c3cc(F)c(F)cc3OC)cc2)c1	28.2

(a) O=C(O)[C@@H]1CCS(=O)(=O)N1Cc1cccc(COc2ccc(-c3cc(F)c(F)cc3Cl)cc2)c1
(b) Cc1cc(F)c(F)cc1-c1ccc(OCc2cccc(CN3[C@@H](C(=O)O)CCS3(=O)=O)c2)cc1
Request: Short answer wanted: higher fold change (FC), a or b ? Identify your pick by its label.
Result: a
(a: 24.7, b: 11.1)

====

target: Glycogen [starch] synthase, muscle (Homo sapiens); assay: Activation of human muscle recombinant GYS1 assessed as fold increase in glycogen synthesis at 75 uM by coupled enzyme assay relative to untreated control; details: Muscle tissue
reported.property: fold change (FC)

smiles.input	fold change (FC)
COc1cc(F)c(F)cc1-c1ccc(OCc2cccc(CN3[C@H](C(=O)O)CCS3(=O)=O)c2)cc1	5.9
COc1cc(F)c(F)cc1-c1ccc(OCc2cccc(CNCC(=O)O)c2)cc1	5.5
CCN(CC(=O)O)Cc1cccc(COc2ccc(-c3cc(F)c(F)cc3OC)cc2)c1	7.6
COc1cc(F)c(F)cc1-c1ccc(OCc2cccc(CN3[C@@H](C(=O)O)CCS3(=O)=O)c2)cc1	5.8
O=C(O)[C@@H]1CCS(=O)(=O)N1Cc1cccc(COc2ccc(-c3cc(F)c(F)cc3F)cc2)c1	5.7
CCC(=O)N(CC(=O)O)Cc1cccc(COc2ccc(-c3cc(F)c(F)cc3OC)cc2)c1	5.4
O=C(O)[C@H]1CCS(=O)(=O)N1Cc1cccc(COc2ccc(-c3cc(F)c(F)cc3F)cc2)c1	5.4
COc1cc(F)c(F)cc1-c1ccc(OCc2cccc(CN(CC(=O)O)C(=O)C(C)(C)C)c2)cc1	6.4
O=C(O)[C@H]1CCS(=O)(=O)N1Cc1cccc(COc2ccc(-c3cc(F)c(F)cc3Cl)cc2)c1	5
O=C(O)[C@@H]1CCS(=O)(=O)N1Cc1cccc(COc2ccc(-c3cc(F)c(F)cc3Cl)cc2)c1	5.3
COc1cc(F)c(F)cc1-c1ccc(OCc2cccc(C(=O)N3CCC[C@H]3C(=O)O)c2)cc1	5.4

====

assay: AUC (0 to infinity) in Wistar rat at 10 mg/kg, po; assay type: ADME, organism-based; design: time infinity, dose 10 mg/kg, route oral; conditions: plasma
reported.property: AUC(0-inf) (ng·h/mL)
Field: numeric (ng·h/mL). Do not append units.

Request: Looking for the measured AUC(0-inf) of `O=C(O)[C@@H]1CCS(=O)(=O)N1Cc1cccc(COc2ccc(-c3cc(F)c(F)cc3F)cc2)c1` , can you help?
Result: 20600

====

target: Glycogen [starch] synthase, muscle (Homo sapiens) (UniProt P13807); test: Activation of GYS1 in human skeletal muscle cells using [14C]-D-glucose assessed as 2.5 fold increase radiolabelled glycogen after 5 hrs by Topcounting
reported.property: Activity (µM)

molecule	readout.units	numeric.result
COc1cc(F)c(F)cc1-c1ccc(OCc2cccc(CN3C(C(=O)O)CCS3(=O)=O)c2)cc1 (racemic)	µM	0.44
O=C(O)[C@H]1CCS(=O)(=O)N1Cc1cccc(COc2ccc(-c3cc(F)c(F)cc3Cl)cc2)c1	µM	12.1
COC(=O)N(CC(=O)O)Cc1cccc(COc2ccc(-c3cc(F)c(F)cc3OC)cc2)c1	µM	0.71
COc1cc(F)c(F)cc1-c1ccc(OCc2cccc(CN3C(=O)CC[C@H]3C(=O)O)c2)cc1	µM	0.7
COc1cc(F)c(F)cc1-c1ccc(OCc2cccc(CN(CC(=O)O)C(=O)C(C)(C)C)c2)cc1	µM	5.5

(I) O=C(O)[C@H]1CCS(=O)(=O)N1Cc1cccc(COc2ccc(-c3cc(F)c(F)cc3F)cc2)c1
(II) COc1cc(F)c(F)cc1-c1ccc(OCc2cccc(CNCC(=O)O)c2)cc1
Request: I'd appreciate it if you could identify which of I and II has the greater Activity. Selection: enter the item's label.
Result: I
(I: 30.8 µM, II: 6.1 µM)
